molecular target: Cytochrome P450 2C19 (Homo sapiens) (UniProt P33261); assay: Cytochrome panel assay with activity outcomes; conditions: recombinant CYP, pro-luciferin dealkylation, luminescence, p450-cyp2c19; series mostly up to 57.1 µM
Sequence (P33261 whole entry, looked up): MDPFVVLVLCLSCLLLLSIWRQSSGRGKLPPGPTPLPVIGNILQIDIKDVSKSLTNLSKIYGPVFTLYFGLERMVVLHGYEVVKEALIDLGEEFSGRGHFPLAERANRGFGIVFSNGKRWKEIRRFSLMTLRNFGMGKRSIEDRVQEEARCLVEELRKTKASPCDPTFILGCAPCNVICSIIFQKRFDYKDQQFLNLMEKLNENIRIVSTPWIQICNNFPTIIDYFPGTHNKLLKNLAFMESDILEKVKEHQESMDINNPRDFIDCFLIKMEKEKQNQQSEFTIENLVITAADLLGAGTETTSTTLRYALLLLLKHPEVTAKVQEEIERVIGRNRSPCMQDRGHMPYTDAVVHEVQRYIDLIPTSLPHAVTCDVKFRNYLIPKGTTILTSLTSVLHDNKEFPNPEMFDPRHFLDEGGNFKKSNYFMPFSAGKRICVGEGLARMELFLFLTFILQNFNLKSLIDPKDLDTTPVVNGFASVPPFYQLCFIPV
Among all 16,000 compounds or so, about 5,800 (36%) were called active. Roughly 23% stayed inconclusive and do not appear here. Calls come from the whole dose curve; as a rule, active = well fitted curve in the direction sought with a large enough effect; inconclusive = small, poorly fitted or top-dose-only effect, or effect the other way; inactive = no such curve, though single readings can be large or run the other way. Some of the results follow.
Your reply should match one of these outcome classes. 1 for active, -1 for inactive

C[C@@H](C(=O)Nc1ccc2ccccc2c1)[C@H]1C[C@]1(C)[C@H](NC(=O)c1cnccn1)c1ccccc1
1
Cc1cc(O)c(C(C)C)cc1N=Cc1ccccc1O
1
NC(=O)OC[C@H](O)COc1ccc(Cl)cc1
-1
Cc1nc(SCC(=O)NCCc2ccccc2)c2oc3ccccc3c2n1
1
CC(=O)NNc1nc2ccccc2s1
-1
O=C(Nc1cccc(F)c1)N1CCCC2(CCN(C(=O)c3cc(C(F)(F)F)cc(C(F)(F)F)c3)CC2)C1
-1

Query string: Recorded test outcome, item COc1ccc(C(=O)Nc2scc(-c3ccc(Cl)cc3Cl)c2C(N)=O)cc1
Result string: 1

Query string: Assay outcome for Cc1cc(Oc2ccccc2)nc(-c2ccccc2)n1 : what was it?
Result string: 1

====

target: Cytochrome P450 2C19 (Homo sapiens) (UniProt P33261); test: Cytochrome panel assay with activity outcomes; conditions: recombinant CYP, pro-luciferin dealkylation, luminescence, p450-cyp2c19; series mostly up to 57.1 µM
Screen size: about 16,000 compounds; about 5,800 (36%) were called active. Inconclusive results (about 23%) are left out. This is one part of the list.
endpoint: AC50

Recorded results for 5 molecules are shown here.
Cc1ccc(-n2nc3c(c2NC(=O)c2cccs2)CSC3)cc1
7.94 µM (active)
COc1ccc(C(=O)NC(CO)c2nnc(SCc3ccc(Cl)c(Cl)c3)n2C)cc1 (stereo unspecified)
15.8 µM (active)
Cc1cc(/C=N\NC(=O)c2cccs2)c(C)n1-c1ccc2ncccc2c1
inactive
O=C(OCc1nc2ccccc2s1)c1ccc(Br)s1
0.447 µM (active)
CC(=O)N1CCC2(CCCN(Cc3ccccc3)C2)CC1
inactive

Query string: Bench note: what AC50 did COC(=O)c1ccccc1NC(=O)CSc1nnc(C(CO)NC(=O)c2ccccc2Cl)n1C (stereo unspecified) show?
Result string: inactive

Query string: Record request: AC50 value, item CC1(C)S[C@@H]2[C@H](NC(=O)[C@@H](NC(=O)N3CCNC3=O)c3ccccc3)C(=O)N2[C@H]1C(=O)O
Result string: inactive

Query string: Endpoint output: AC50 of O=C1CN=C(Nc2ccc(Cl)cc2)N1c1ccccc1 . Value?
Result string: 11.2 µM (active)

Query string: Requested field: AC50. Item: Cc1nccn1C[C@@H]1CCc2c(c3ccccc3n2C)C1=O
Result string: inactive

Query string: Find the recorded AC50 belonging to Cc1ccc(C(=O)c2ccc(CC(=O)O)n2C)cc1 and report it.
Result string: inactive

Query string: Field request: AC50 | item: N#CCSc1ncnc2c1cnn2CCO
Result string: inactive

====

biological target: Cytochrome P450 2C19 (Homo sapiens) (UniProt P33261); assay: Cytochrome panel assay with activity outcomes; conditions: recombinant CYP, pro-luciferin dealkylation, luminescence, p450-cyp2c19; series mostly up to 57.1 µM
The campaign covered roughly 16,000 compounds. About 5,800 (36%) were called active. Not shown: some 23% with an inconclusive outcome. The call rests on the fitted dose curve; in most records, active means well fitted curve in the direction sought with a large enough effect; inconclusive means small, poorly fitted or top-dose-only effect, or effect the other way; inactive means no such curve, though single readings can be large or run the other way. Some of the results follow.
Entry note: the call must match one of t = active, f = inactive

O=C(c1ccncc1)N1CCC2(CCCN(Cc3ccccc3)C2)CC1
f
COc1ccccc1CNc1ccnc(-c2ccc(N(C)C)cc2)n1
t
Cc1cnc(CNc2ccnc(-c3ccc(N(C)C)cc3)n2)cn1
f
CN(C)c1ccc(-c2nccc(NCc3cccs3)n2)cc1
t
N#CCSc1nc2cc(C(=O)N3CCCC3)ccc2c(=O)n1Cc1ccccc1
t
COc1ccc(NC(=O)CSc2nnc(Cc3cccn3C)n2CCc2ccccc2)c(OC)c1
t

Query string: Look up the recorded call for COc1ccccc1CNc1ccnc(-c2ccoc2)n1 in this test.
Result string: t

Query string: Short answer needed: outcome of this test for COc1ccc(C(=O)NNC(=O)CSc2nnc(COc3ccc4ccccc4c3)n2C)cc1 ?
Result string: f

Query string: Field: outcome | Entry: CCn1c(COc2ccccc2)nnc1SCC(=O)Nc1cc(OC)ccc1OC
Result string: t

Query string: // return assay outcome for CCCCn1c(SCC(N)=O)nc2ccc(N3CCOCC3)cc2c1=O
Result string: f

Query string: What did the test return for COc1ccc(OC)c(C(=O)CSc2nnc(Cc3cccs3)n2CCc2ccccc2)c1 ?
Result string: t
